System: TGF-β-stimulated SMAD3 phosphorylation in BEAS-2B cells
assayInfo: Cellular ALK5 potency assay, inhibition of TGF-β stimulated pSMAD3 formation in BEAS-2B cells
Type: cell-based
conditionSet: Homo sapiens, pSMAD3, TGF-β 10 ng/mL, read-out: BEAS2B pIC50 (converted)
Procedure: The potency of compounds of the present disclosure for inhibition of TGF-β-stimulated SMAD3 phosphorylation was measured in BEAS-2B cells, a human lung epithelial cell line. […] For the assay, BEAS-2B cells were seeded at 7,500 cells/well (25 μL/well) in a 384-well plate and cultured overnight. […] AlphaLISA Acceptor and Detector beads (PerkinElmer) were added 2 hours apart, then incubated overnight to be read the next day. […] Data are expressed as pIC50 (negative decadic logarithm IC50) values.
measuredQuantity: IC50

Problem: GET /values?readout=IC50&system=TGF-β-stimulated SMAD3 phosphorylation in BEAS-2B cells&item= Cc1cccc(-c2nccc(Nc3ccnc(Nc4ccc(Cc5ncco5)cc4)n3)n2)n1
Solution: 25.1 to 158 nM

Problem: Give recorded IC50 with TGF-β-stimulated SMAD3 phosphorylation in BEAS-2B cells for the following compound: Cc1cccc(-c2nccc(Nc3ccnc(Nc4cc(NC(=O)C5CCNCC5)c5c(c4)OCCO5)n3)n2)n1
Solution: 25.1 to 158 nM

Problem: State its IC50 on TGF-β-stimulated SMAD3 phosphorylation in BEAS-2B cells: Cc1cccc(-c2nccc(Nc3ccnc(Nc4ccc(CC5CNC5)cc4)n3)n2)n1
Solution: 25.1 to 158 nM

Problem: Give recorded IC50 with TGF-β-stimulated SMAD3 phosphorylation in BEAS-2B cells for the following compound: Cc1cccc(-c2nccc(Nc3ccnc(Nc4ccc(NC(=O)N5CCN[C@@H](CO)C5)cc4)n3)n2)n1
Solution: 25.1 to 158 nM

Problem: Please provide the recorded IC50 for Cc1cccc(-c2nccc(Nc3ccnc(Nc4nc(CN5CC(C(=O)O)C5)cs4)n3)n2)n1 , tested on TGF-β-stimulated SMAD3 phosphorylation in BEAS-2B cells.
Solution: 1580 to 10000 nM

Problem: // map Cc1cccc(-c2nccc(Nc3ccnc(Nc4cnn(C5CCCNC5)c4)n3)n2)n1 (stereo not shown) to recorded IC50 (system: TGF-β-stimulated SMAD3 phosphorylation in BEAS-2B cells)
Solution: 200 to 1260 nM

Problem: Hello, I am looking for reported IC50 with TGF-β-stimulated SMAD3 phosphorylation in BEAS-2B cells for Cc1cccc(-c2nccc(Nc3ccnc(Nc4ccc(NS(=O)(=O)CCN)cc4)n3)n2)n1 . Could you help?
Solution: 200 to 1260 nM

Problem: For TGF-β-stimulated SMAD3 phosphorylation in BEAS-2B cells, provide IC50 of Cc1cccc(-c2nccc(Nc3ccnc(Nc4ccc(N5CCC(CN)CC5)cc4)n3)n2)n1 please.
Solution: 25.1 to 158 nM

Problem: Requested read-out IC50, target or system TGF-β-stimulated SMAD3 phosphorylation in BEAS-2B cells, entry Fc1ccc(Cl)cc1-c1ncc(C2CC2)c(Nc2ccnc(Nc3ccc(N4CCNCC4)cc3)n2)n1
Solution: 200 to 1260 nM

Problem: Value wanted: IC50 (TGF-β-stimulated SMAD3 phosphorylation in BEAS-2B cells) of entry Cc1cccc(-c2nccc(Nc3ccnc(Nc4ccc(N5CCCC(C(=O)OC6CNC6)C5)cc4)n3)n2)n1 (stereo not shown)
Solution: 25.1 to 158 nM

Problem: Any idea what IC50 came out for Cc1cccc(-c2nccc(Nc3ccnc(Nc4nc(CN5CCC[C@@H](C(=O)OCC6CNC6)C5)cs4)n3)n2)n1 on TGF-β-stimulated SMAD3 phosphorylation in BEAS-2B cells?
Solution: 200 to 1260 nM

Problem: Under TGF-β-stimulated SMAD3 phosphorylation in BEAS-2B cells: IC50 value of Cc1cccc(-c2nccc(Nc3ccnc(Nc4ccc(NC(=O)C5(CO)CNC5)cc4)n3)n2)n1 ?
Solution: ≤ 20 nM

Problem: Observed IC50 on TGF-β-stimulated SMAD3 phosphorylation in BEAS-2B cells for Cc1cccc(-c2nccc(Nc3ccnc(Nc4ncc(C(=O)OC5CNC5)s4)n3)n2)n1 , please.
Solution: 25.1 to 158 nM

Problem: Give recorded IC50 with TGF-β-stimulated SMAD3 phosphorylation in BEAS-2B cells for the following compound: Cc1cccc(-c2nccc(Nc3ccnc(Nc4ccc(C5CCNCC5)cc4)n3)n2)n1
Solution: 25.1 to 158 nM

Problem: Missing value: IC50, TGF-β-stimulated SMAD3 phosphorylation in BEAS-2B cells, entry Cc1cccc(-c2nccc(Nc3ccnc(Nc4ccc(NCCN)cc4)n3)n2)n1 . Fill in?
Solution: 25.1 to 158 nM

Problem: Find the measured IC50: item Cc1cccc(-c2nccc(Nc3ccnc(Nc4ccc(S(=O)(=O)NCCN(C)C)cc4)n3)n2)n1 , target or system TGF-β-stimulated SMAD3 phosphorylation in BEAS-2B cells.
Solution: 25.1 to 158 nM

---

Tested on: TGF-β-stimulated SMAD3 phosphorylation in BEAS-2B cells
assayInfo: Cellular ALK5 potency assay, inhibition of TGF-β stimulated pSMAD3 formation in BEAS-2B cells
Assay type: cell-based
conditionSet: Homo sapiens, pSMAD3, TGF-β 10 ng/mL, read-out: BEAS2B pIC50 (converted)
Answer each item with its documented IC50.

Problem: API: value(readout=IC50, system=TGF-β-stimulated SMAD3 phosphorylation in BEAS-2B cells) for record Cc1cccc(-c2nccc(Nc3ccnc(Nc4csc(NC(=O)C5CCNC5)c4)n3)n2)n1 (stereo not shown)
Solution: ≤ 20 nM

Problem: // lookup IC50 | system=TGF-β-stimulated SMAD3 phosphorylation in BEAS-2B cells | key= Cc1cccc(-c2nc(Nc3ccnc(Nc4ccc(N5CCOCC5)cc4)n3)c3nn[nH]c3n2)n1
Solution: 200 to 1260 nM

Problem: Form field: IC50 recorded for Cc1cccc(-c2nccc(Nc3ccnc(Nc4ccc(N5CCC(CNCc6ccccc6)CC5)cc4)n3)n2)n1 with TGF-β-stimulated SMAD3 phosphorylation in BEAS-2B cells (enter value)
Solution: 200 to 1260 nM

Problem: Requested read-out IC50, target or system TGF-β-stimulated SMAD3 phosphorylation in BEAS-2B cells, entry COC(=O)c1cc(Nc2nccc(Nc3ccnc(-c4cccc(C)n4)n3)n2)ccc1N1CCNCC1
Solution: 25.1 to 158 nM

Problem: TGF-β-stimulated SMAD3 phosphorylation in BEAS-2B cells / IC50 / Cc1cccc(-c2nccc(Nc3ccnc(Nc4ccc(F)c(CN5CCN(C)CC5)c4)n3)n2)n1 : value?
Solution: 25.1 to 158 nM

Problem: Look up IC50 with TGF-β-stimulated SMAD3 phosphorylation in BEAS-2B cells for this compound: Cc1cccc(-c2nccc(Nc3ccnc(Nc4ccc(NC(=O)C5CCNC5)cc4)n3)n2)n1 (stereo not shown)
Solution: ≤ 20 nM

Problem: Give TGF-β-stimulated SMAD3 phosphorylation in BEAS-2B cells IC50 for Cc1cccc(-c2nccc(Nc3ccnc(Nc4ccc(C(=O)O[C@H](C)C5CCNCC5)nc4)n3)n2)n1
Solution: 200 to 1260 nM

---

measuredTarget: recombinant human ALK5 (TGF-βR1) protein (Homo sapiens)
Sequence (P36897 34-503): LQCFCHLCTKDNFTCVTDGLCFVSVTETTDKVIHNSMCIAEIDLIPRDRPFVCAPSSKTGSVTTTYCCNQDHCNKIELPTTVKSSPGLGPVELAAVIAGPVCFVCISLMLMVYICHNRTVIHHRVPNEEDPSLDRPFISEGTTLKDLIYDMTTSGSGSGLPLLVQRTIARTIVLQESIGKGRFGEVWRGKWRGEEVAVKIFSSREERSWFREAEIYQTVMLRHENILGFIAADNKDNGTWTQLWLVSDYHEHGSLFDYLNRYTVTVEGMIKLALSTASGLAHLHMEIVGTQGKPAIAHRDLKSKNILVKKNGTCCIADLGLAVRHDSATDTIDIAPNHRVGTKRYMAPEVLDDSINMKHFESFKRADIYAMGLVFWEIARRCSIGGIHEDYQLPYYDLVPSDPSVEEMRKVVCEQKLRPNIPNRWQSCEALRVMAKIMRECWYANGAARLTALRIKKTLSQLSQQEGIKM
assayInfo: Biochemical ALK5 (TGF-βR1) assay to measure pKi (LANCE Ultra ULight kinase assay)
conditionSet: apparent pKi, converted from pIC50 by Cheng-Prusoff
Would you mind telling me the reported Ki of each entry?

Problem: Could you share which Ki value was measured for Cc1cccc(-c2nccc(Nc3ccnc(Nc4cccc(C(=O)O[C@H]5CCNC5)c4)n3)n2)n1 [Compound 257] ?
Solution: 0.398 to 3.16 nM

Problem: Item under review: Cc1cccc(-c2nccc(Nc3ccnc(Nc4ccc(CN5C[C@H](C)NC[C@H]5C)cc4)n3)n2)n1 [Compound 376] . Reported Ki?
Solution: 0.0398 to 0.316 nM

Problem: State the recorded Ki for this entry: COC(=O)Cc1cc(Nc2nccc(Nc3ccnc(-c4cccc(C)n4)n3)n2)ccc1N1CCNCC1 [Compound 252]
Solution: ≤ 0.0316 nM

Problem: Requested read-out: Ki. Entry: CCNC(=O)Cc1cc(Nc2ccnc(Nc3ccc(N4CCNCC4)cc3)n2)nc(-c2cccc(C)n2)n1 [Compound 1006]
Solution: 0.398 to 3.16 nM

Problem: Recorded Ki of Cc1cccc(-c2nccc(Nc3ccnc(Nc4ccc(CN5CC6(CNC6)C5)cc4)n3)n2)n1 [Compound 163] , please.
Solution: 0.0398 to 0.316 nM

Problem: Value lookup for Ki; key = Fc1ccccc1-c1nccc(Nc2ccnc(Nc3ccc(N4CCOCC4)cc3)n2)n1 [Compound 399]
Solution: 3.98 to 31.6 nM

Problem: Query: Ki; subject: Cc1cccc(-c2nccc(Nc3ccnc(Nc4csc(C(=O)N5CCN[C@@H](CO)C5)c4)n3)n2)n1 [Compound 536]
Solution: 0.0398 to 0.316 nM

---

Can you tell me Ki for the items I'm about to list?
measuredTarget: recombinant human ALK5 (TGF-βR1) protein (Homo sapiens)
assayInfo: Biochemical ALK5 (TGF-βR1) assay to measure pKi (LANCE Ultra ULight kinase assay)
conditionSet: apparent pKi, converted from pIC50 by Cheng-Prusoff

Problem: Please state recorded Ki (tested on recombinant human ALK5 (TGF-βR1) protein (Homo sapiens)) of COc1cc(N2CCOCC2)ccc1Nc1nccc(Nc2ccnc(-c3cccc(C)n3)n2)n1
Solution: 3.98 to 31.6 nM

Problem: Write down the reported Ki of Cc1cccc(-c2nccc(Nc3ccnc(Nc4csc(C(=O)OCCN5C[C@@H](C)N[C@@H](C)C5)c4)n3)n2)n1 , test system: recombinant human ALK5 (TGF-βR1) protein (Homo sapiens).
Solution: 0.0398 to 0.316 nM

Problem: Find the measured Ki: item Cc1cccc(-c2nc(Nc3ccnc(Nc4ccc(CC(=O)O)cc4)n3)c3cccn3n2)n1 , target or system recombinant human ALK5 (TGF-βR1) protein (Homo sapiens).
Solution: 0.0398 to 0.316 nM

Problem: Fill in the recorded Ki for this compound, with recombinant human ALK5 (TGF-βR1) protein (Homo sapiens) as test system: Cc1cccc(-c2nccc(Nc3ccnc(Nc4cc(F)c(C(=O)N5CCNCC5)c(Cl)c4)n3)n2)n1
Solution: 0.398 to 3.16 nM

Problem: Given the entry Cc1cccc(-c2nccc(Nc3ccnc(Nc4ccc(N5CCC(N(C)Cc6ccccc6)CC5)cc4)n3)n2)n1 , what Ki was observed with recombinant human ALK5 (TGF-βR1) protein (Homo sapiens)?
Solution: 0.0398 to 0.316 nM

Problem: # get_value(readout= Ki, system= recombinant human ALK5 (TGF-βR1) protein (Homo sapiens)) for Cc1cccc(-c2nccc(Nc3ccnc(Nc4nc(C(=O)OC[C@H]5CCCCN5)cs4)n3)n2)n1
Solution: 0.398 to 3.16 nM

Problem: Param readout= Ki; system= recombinant human ALK5 (TGF-βR1) protein (Homo sapiens); entry= Cc1cccc(-c2nccc(Nc3ccnc(Nc4csc(C(=O)OCCN5CCN6CCCC6C5)c4)n3)n2)n1 (stereo not drawn) ; returns value.
Solution: 0.0398 to 0.316 nM

Problem: // fetch recombinant human ALK5 (TGF-βR1) protein (Homo sapiens) Ki for Cc1cccc(-c2nccc(Nc3ccnc(Nc4ccc(C(=O)O[C@H]5CCCNC5)nc4)n3)n2)n1
Solution: 0.0398 to 0.316 nM

Problem: Under recombinant human ALK5 (TGF-βR1) protein (Homo sapiens): Ki value of CC(=O)N1CC(CNc2ccc(Nc3nccc(Nc4ccnc(-c5cccc(C)n5)n4)n3)cc2)C1 ?
Solution: 0.398 to 3.16 nM

Problem: I'm curious: which Ki was measured for CC(=O)N1CCN(c2ccc(Nc3nccc(Nc4ccnc(-c5cccc(C)n5)n4)n3)cc2)CC1 tested on recombinant human ALK5 (TGF-βR1) protein (Homo sapiens)?
Solution: ≤ 0.0316 nM

Problem: What reported Ki corresponds to COC(=O)C1CN(CCNc2ccc(Nc3nccc(Nc4ccnc(-c5cccc(C)n5)n4)n3)cc2)CCN1C (stereo not drawn) on recombinant human ALK5 (TGF-βR1) protein (Homo sapiens)?
Solution: 0.398 to 3.16 nM

Problem: Query Ki on recombinant human ALK5 (TGF-βR1) protein (Homo sapiens) for Cc1cccc(-c2nccc(Nc3ccnc(Nc4ccc(CC5CCNCC5)cc4)n3)n2)n1
Solution: 0.0398 to 0.316 nM

Problem: Give the reported Ki for Cc1cccc(-c2nccc(Nc3ccnc(Nc4ccc(C(=O)O[C@@H]5CCNC5)cn4)n3)n2)n1 (system: recombinant human ALK5 (TGF-βR1) protein (Homo sapiens)).
Solution: 3.98 to 31.6 nM

Problem: Lab request: please report Ki under test system recombinant human ALK5 (TGF-βR1) protein (Homo sapiens) for Cc1cccc(-c2nccc(Nc3ccnc(Nc4csc(C(=O)O[C@H]5C[C@@H](N)C5)c4)n3)n2)n1
Solution: 0.0398 to 0.316 nM

Problem: What value of Ki on recombinant human ALK5 (TGF-βR1) protein (Homo sapiens) does Cc1cccc(-c2nccc(Nc3ccnc(Nc4csc(C(=O)O[C@H]5CC[C@](C)(N)CC5)c4)n3)n2)n1 have?
Solution: 0.0398 to 0.316 nM

Problem: recombinant human ALK5 (TGF-βR1) protein (Homo sapiens) / Ki / Cc1cccc(-c2nccc(Nc3ccnc(Nc4ccc(Cl)c(CN5C[C@@H](C)N[C@@H](C)C5)c4)n3)n2)n1 : value?
Solution: 0.0398 to 0.316 nM

Problem: Fill in the recorded Ki for this compound, with recombinant human ALK5 (TGF-βR1) protein (Homo sapiens) as test system: Cc1cccc(-c2nccc(Nc3ccnc(Nc4ccc(C)c(CO)c4)n3)n2)n1
Solution: 0.0398 to 0.316 nM

Problem: What reported Ki corresponds to Cc1cccc(-c2nccc(Nc3ccnc(Nc4ccc(CN5C[C@@H](C)NC[C@H]5C)cc4)n3)n2)n1 on recombinant human ALK5 (TGF-βR1) protein (Homo sapiens)?
Solution: 0.0398 to 0.316 nM

Problem: Please provide the recorded Ki for Cc1cccc(-c2nccc(Nc3ccnc(Nc4cccc(NC(=O)N5CCN(C)CC5)c4)n3)n2)n1 , tested on recombinant human ALK5 (TGF-βR1) protein (Homo sapiens).
Solution: 0.0398 to 0.316 nM

Problem: Write down the reported Ki of Cc1cccc(-c2nccc(Nc3ccnc(Nc4csc(C(=O)NC5(CO)CCNC5)c4)n3)n2)n1 (stereo not drawn) , test system: recombinant human ALK5 (TGF-βR1) protein (Homo sapiens).
Solution: 0.0398 to 0.316 nM

Problem: Tell me reported Ki for Cc1cccc(-c2nccc(Nc3ccnc(Nc4ccc(CN5CCCC(C(=O)OC6CCNCC6)C5)cc4)n3)n2)n1 (stereo not drawn) , tested with recombinant human ALK5 (TGF-βR1) protein (Homo sapiens).
Solution: 0.0398 to 0.316 nM
